Listing of recorded percent inhibition of viability by entry.
Test system: YT (IL-2 2.5 ng/mL)
Assay: percent inhibition of viability; higher = more inhibition
Settings: 72 h; 10 nM
Numbers only here, please. The scale is %.

Worked set:
1. Cc1ncc(-c2ccnc(Nc3ccc(S(C)(=O)=O)cc3)n2)n1C(C)C [AZD-5438] (max concentration tested 10000 nM) :: -0.25
2. COc1cc2c(cc1-c1c(C)noc1C)ncc1[nH]c(=O)n([C@H](C)c3ccccn3)c12 [I-BET151] (max concentration tested 10000 nM) :: -3.54
3. COc1cc(N2CCN(C)CC2)ccc1Nc1nccc(-c2cn(C)c3cnccc23)n1 [AZ191] (max concentration tested 10000 nM) :: 4.34
4. O=C(CCBr)N1CCN(C(=O)CCBr)CC1 [Pipobroman] (max concentration tested 10000 nM) :: -10.7
5. CCc1c(C(=O)C(N)=O)c2c(OCC(=O)O)cccc2n1Cc1ccccc1 [Varespladib] (max concentration tested 10000 nM) :: -8.83

Now for another entry.
input: What does the record list as percent inhibition of viability for CN1CCc2c(c3ccccc3n2Cc2ccc(C(=O)NO)cc2)C1 [Tubastatin A] (max concentration tested 10000 nM) ?
output: -2.95

###

Listing of recorded relative IC50 by entry.
Tested on: NKL (IL-2 2.5 ng/mL)
Assay: relative IC50 (inflection point of fitted viability curve, relative to fitted max inhibition); higher = less sensitive
Details: 72 h
Numbers only here, please. The scale is nM.

Worked set:
1) Nc1ccn([C@@H]2O[C@H](CO)[C@@H](O)C2(F)F)c(=O)n1 [Gemcitabine] :: 0.73
2) COc1ccccc1S(=O)(=O)Nc1ccc2c(c1)CN(C)C(=O)N2 [PFI-1] :: 1080
3) O=C(NC1CCNCC1)c1n[nH]cc1NC(=O)c1c(Cl)cccc1Cl [AT7519] :: 204
4) Cc1ccc(NC(=O)c2ccc(CN3CCN(C)CC3)cc2)cc1Nc1nccc(-c2cccnc2)n1 [Imatinib] :: 3600

Now for another entry.
input: What does the record list as relative IC50 for O=C1c2c(O)ccc(O)c2C(=O)c2c(NCCNCCO)ccc(NCCNCCO)c21 [Mitoxantrone] ?
output: 32.2

###

Test system: normal primary NK cells, pool 1 (3 donors), resting (IL-2 0 ng/mL)
Test: percent inhibition of viability; higher = more inhibition
Settings: 72 h; 10 nM
Listing of recorded percent inhibition of viability by entry.
Numbers only here, please. The scale is %.

1) CC(C)C[C@H](NC(=O)[C@H](CCc1ccccc1)NC(=O)CN1CCOCC1)C(=O)N[C@@H](Cc1ccccc1)C(=O)N[C@@H](CC(C)C)C(=O)[C@@]1(C)CO1 [Carfilzomib] (max concentration tested 1000 nM) :: 94
2) CC(C)(C)Cn1c(N)nc2ccc(-c3[nH]c(C(C)(C)C)nc3-c3ccc(F)cc3)nc21 [Ralimetinib] (max concentration tested 10000 nM) :: -29.1
3) C1=N/C2=N/c3ccc(OCCN4CCCC4)c(c3)COC/C=C/COCc3cccc(c3)C(=C1)N2 [Pacritinib] (max concentration tested 10000 nM) :: -5.07

input: What does the record list as percent inhibition of viability for C/C(=C\c1csc(C)n1)[C@@H]1C[C@@H]2O[C@]2(C)CCC[C@H](C)[C@H](O)[C@@H](C)C(=O)C(C)(C)[C@@H](O)CC(=O)O1 [Patupilone] (max concentration tested 1000 nM) ?
output: 6.09

input: Let us now turn to N[C@@H]1CCCN(c2c(/C=C3\SC(=O)NC3=O)cccc2-c2ccccc2)C1 [AZD1208] (max concentration tested 10000 nM)
output: 0.65

input: Let us now turn to CO[C@H]1C[C@@H]2CC[C@@H](C)[C@@](O)(O2)C(=O)C(=O)N2CCCC[C@H]2C(=O)O[C@H]([C@H](C)C[C@@H]2CC[C@@H](O)[C@H](OC)C2)CC(=O)[C@H](C)/C=C(\C)[C@@H](O)[C@@H](OC)C(=O)[C@H](C)C[C@H](C)/C=C/C=C/C=C/1C [Sirolimus] (max concentration tested 100 nM)
output: 1.9

###

Tested on: DERL-7 (IL-2 2.5 ng/mL)
Assay: drug sensitivity score (DSS) (DSS units); higher = more sensitive; extreme values may be limits of the assay
Conditions: 72 h
parameterMeasured: drug sensitivity score
Reply with just the number.

Worked set:
1) O[C@H]1CC[C@H](Nc2ncc3nc(Nc4c(F)cc(F)cc4F)n([C@H]4CCOC4)c3n2)CC1 [Tanzisertib] (max concentration tested 10000 nM) :: 0.7
2) COc1cc(N2CCN(C)CC2)ccc1Nc1nccc(-c2cn(C)c3cnccc23)n1 [AZ191] (max concentration tested 10000 nM) :: 9.03

Now for another entry.
input: What does the record list as drug sensitivity score for C[C@@H](Oc1ccc2[nH]nc(/C=C/c3cnn(CCO)c3)c2c1)c1c(Cl)cncc1Cl (max concentration tested 1000 nM) ?
output: 11.6

###

System: normal NK cells expanded with K562-aAPC
Assay: percent inhibition of viability; higher = more inhibition
Settings: 72 h; IL-2 2.5 ng/mL; 1 nM
Listing of recorded percent inhibition of viability by entry.
Numbers only here, please. The scale is %.

Worked set:
1. COc1cc(N2CCN(C)CC2)ccc1Nc1nccc(-c2cn(C)c3cnccc23)n1 [AZ191] (max concentration tested 10000 nM) :: -2.34
2. CC(C)C[C@H](NC(=O)[C@H](CCc1ccccc1)NC(=O)CN1CCOCC1)C(=O)N[C@@H](Cc1ccccc1)C(=O)N[C@@H](CC(C)C)C(=O)[C@@]1(C)CO1 [Carfilzomib] (max concentration tested 1000 nM) :: -4.15

Now for another entry.
input: What does the record list as percent inhibition of viability for O[C@H]1CC[C@H](Nc2ncc3nc(Nc4c(F)cc(F)cc4F)n([C@H]4CCOC4)c3n2)CC1 [Tanzisertib] (max concentration tested 10000 nM) ?
output: -0.53

###

Test system: NK-YS (IL-2 2.5 ng/mL)
Experiment: drug sensitivity score (DSS) (DSS units); higher = more sensitive; extreme values may be limits of the assay
Conditions: 72 h
Listing of recorded drug sensitivity score by entry.
Reply with just the number.

1. COc1cc2c(N3CCN(C(=O)Nc4ccc(OC(C)C)cc4)CC3)ncnc2cc1OCCCN1CCCCC1 [Tandutinib] (max concentration tested 1000 nM) :: 0

input: Which drug sensitivity score is reported with NK-YS (IL-2 2.5 ng/mL) for this entry: Cn1cc(CNCC2CCN(c3ncc(C(=O)NO)cn3)CC2)c2ccccc21 [Quisinostat] (max concentration tested 1000 nM) ?
output: 19.7

input: Let us now turn to Cc1cn(-c2cc(NC(=O)c3ccc(C)c(Nc4nccc(-c5cccnc5)n4)c3)cc(C(F)(F)F)c2)cn1 [Nilotinib] (max concentration tested 10000 nM)
output: 1.36

input: Let us now turn to O=NN(CCCl)C(=O)NC1CCCCC1 [Lomustine] (max concentration tested 10000 nM)
output: 0

input: Let us now turn to Cc1nc(N)sc1-c1ccnc(Nc2ccc(N3CCOCC3)cc2)n1 [CYC-116] (max concentration tested 10000 nM)
output: 14.1

input: Let us now turn to Cc1c(NC(=O)OC[C@@H]2COCCN2)cn2ncnc(Nc3ccc4c(cnn4Cc4cccc(F)c4)c3)c12 (max concentration tested 10000 nM)
output: 2.25

input: Let us now turn to Cc1cc(Nc2cc(N3CCN(C)CC3)nc(Sc3ccc(NC(=O)C4CC4)cc3)n2)n[nH]1 [Tozasertib] (max concentration tested 10000 nM)
output: 19.2

input: Let us now turn to CC[C@@]1(O)C(=O)OCc2c1cc1n(c2=O)Cc2cc3c(CN(C)C)c(O)ccc3nc2-1 [Topotecan] (max concentration tested 10000 nM)
output: 29.2

input: Let us now turn to CC(C)C[C@H](NC(=O)[C@@H](COC(C)(C)C)NC(=O)[C@H](Cc1ccc(O)cc1)NC(=O)[C@H](CO)NC(=O)[C@H](Cc1c[nH]c2ccccc12)NC(=O)[C@H](Cc1cnc[nH]1)NC(=O)[C@@H]1CCC(=O)N1)C(=O)N[C@@H](CCCNC(=N)N)C(=O)N1CCC[C@H]1C(=O)NNC(N)=O [Goserelin] (max concentration tested 10000 nM)
output: 0

input: Let us now turn to CN(C[C@@H]1COCCO1)S(=O)(=O)Nc1ccc2ccc3ncc(-c4cnn(C)c4)cc3c(=O)c2c1 [MK-2461] (max concentration tested 10000 nM)
output: 2.18

input: Let us now turn to CC(C)N(CCCNC(=O)Nc1ccc(C(C)(C)C)cc1)C[C@H]1O[C@@H](n2cc(Br)c3c(N)ncnc32)[C@H](O)[C@@H]1O [SGC0946] (max concentration tested 10000 nM)
output: 0.7

###

System: NK-YS (IL-2 2.5 ng/mL)
Test: percent inhibition of viability; higher = more inhibition
Details: 72 h; 1000 nM
I'd appreciate it if you marked entries class 1 when percent inhibition of viability is lower than 30% and class 0 when it is not.

Check out these entries, answers already filled in.
1. COc1cc2ncnc(Nc3ccc(F)c(Cl)c3)c2cc1NC(=O)/C=C/CN1CCCCC1 [Dacomitinib] (max concentration tested 1000 nM) :: class 1
2. COc1ccc(-c2ccc3ncc4c(c3c2)n(-c2ccc(N3CCNCC3)c(C(F)(F)F)c2)c(=O)n4C)cn1 [NVP-BGT226] (max concentration tested 1000 nM) :: class 0
3. CNC(=O)c1ccc(C)c(-n2c(C)cc(OCc3ccc(F)cc3F)c(Br)c2=O)c1 (max concentration tested 1000 nM) :: class 1
4. O=C(NOCC1CC1)c1ccc(F)c(F)c1Nc1ccc(I)cc1Cl (max concentration tested 10000 nM) :: class 1
5. COc1cc2c(cc1-c1c(C)noc1C)ncc1[nH]c(=O)n([C@H](C)c3ccccn3)c12 [I-BET151] (max concentration tested 10000 nM) :: class 0

input: Record CNNCc1ccc(C(=O)NC(C)C)cc1 [Procarbazine] (max concentration tested 10000 nM) : is its percent inhibition of viability strictly below 30%?
output: class 1
